System: Fibroblast
experimentSummary: Multiplex assay against human fibroblast
Type: toxicity, cell-based
experimentalContext: 48 h, 1 µM, compound concentration 1 uM, replicate 2
Record fulfilled whenever Population Tubulin-Different-Phenotype (%) is at 60% or higher; record not fulfilled when lower.

>  <molecule>
O=C(CCCc1ccccc1)Nc1nc2ccccc2c(=O)s1

>  <testedSystem>
Fibroblast

>  <class>
not fulfilled

$$$$
>  <molecule>
CN(C)C(=O)Cn1cc(-c2ccc(-c3cncc4ccccc34)cc2)cn1

>  <testedSystem>
Fibroblast

>  <class>
fulfilled

$$$$
>  <molecule>
CC(=O)Nc1cccc2c1c(Sc1ccc(Cl)cc1)c(C)n2CC(=O)O

>  <testedSystem>
Fibroblast

>  <class>
not fulfilled

$$$$
>  <molecule>
CC(/C=C1\SC(=S)N(CCCC(=O)Nc2ccc(C(=O)O)c(O)c2)C1=O)=C\c1ccccc1

>  <testedSystem>
Fibroblast

>  <class>
not fulfilled

$$$$
>  <molecule>
Cl.N=C(N)NC(=O)Cc1c(Cl)cccc1Cl [GUANFACINE HYDROCHLORIDE]

>  <testedSystem>
Fibroblast

>  <class>
not fulfilled

$$$$
>  <molecule>
NCCc1cn(S(=O)(=O)c2c(Cl)nc3sccn23)c2ccccc12.O=C(O)C(=O)O

>  <testedSystem>
Fibroblast

>  <class>
not fulfilled

$$$$
>  <molecule>
O=C(NCCN1CCC(n2c(=O)[nH]c3cc(Cl)ccc32)CC1)c1ccc(F)cc1 [HALOPEMIDE]

>  <testedSystem>
Fibroblast

>  <class>
fulfilled

$$$$
>  <molecule>
N#Cc1c(Oc2cccc(OS(=O)(=O)CCCC(F)(F)F)c2)cccc1C(F)(F)F

>  <testedSystem>
Fibroblast

>  <class>
not fulfilled

$$$$

Here is another molecule to look at.
input: Does COC[C@@H](c1ccc(C(F)(F)F)cc1)N1CCN(C2(C)CCN(C(=O)c3c(C)ncnc3C)CC2)C[C@@H]1C.O=C(O)/C=C\C(=O)O [VICRIVIROC MALEATE] have a reported Population Tubulin-Different-Phenotype (%) of at least 60%?
output: not fulfilled

* * *

Reported Population Mitochondria Different-Phenotype (%) values for the following compounds.
Test system: Fibroblast
experimentSummary: Multiplex assay against human fibroblast
Type: toxicity, cell-based
experimentalContext: 48 h, 10 µM, compound concentration 10 uM, replicate 2
Your answer should be a plain number; it is taken to be in %.

// worked examples, Population Mitochondria Different-Phenotype (%) included
>  <compound>
CC(C)(C)c1cc(NC(=O)Nc2ccc(-c3cn4c(n3)sc3cc(OCCN5CCOCC5)ccc34)cc2)no1

>  <resultValue>
6

$$$$
>  <compound>
C[C@H](N)COC(=O)[C@@H](CCCCN)NC(=O)Cc1c(-c2ccc3ccccc3c2)[nH]c2c1ccc1ccccc12

>  <resultValue>
8

$$$$
>  <compound>
COc1ccccc1N1CCN(C[C@@H](C(=O)NC(C)(C)C)c2ccccc2)CC1.Cl.Cl

>  <resultValue>
8

$$$$
>  <compound>
Cc1onc(-c2ccccc2Cl)c1C(=O)N(C)c1ccc(Cl)cc1

>  <resultValue>
6

$$$$

// Population Mitochondria Different-Phenotype (%) value for Cc1cccc(NC(=O)CN2CCC(c3ccccn3)CC2)c1.Cl.Cl : 16

// Population Mitochondria Different-Phenotype (%) value for Cc1sc2c(c1C)C(c1ccc(Cl)cc1)=N[C@@H](CC(=O)NCCCCCCCCNC(=O)COc1cccc3c1C(=O)N(C1CCC(=O)NC1=O)C3=O)c1nnc(C)n1-2 (stereo partly drawn) : 14

// Population Mitochondria Different-Phenotype (%) value for CN(C)C(=O)Cn1cc(-c2ccc(-c3cncc4ccccc34)cc2)cn1 : 13

// Population Mitochondria Different-Phenotype (%) value for N#Cc1c(Oc2cccc(OS(=O)(=O)CCCC(F)(F)F)c2)cccc1C(F)(F)F : 15
